Test system: MDA-MB-468 breast
MEASUREMENT_DESCRIPTION: NCI tumour cell line growth inhibition, 48 h
QUANTITY: TGI (µM)
Expressed in µM, but write only the number.

Some solved entries appear below for comparison.
| STRUCTURE_SMILES | TGI (µM) |
| --- | --- |
| Cc1cc2cccnc2c2ncccc12 | 5.48 |
| O=C(Nc1ccc(F)cc1)c1cc(-c2ccc(F)cc2F)ccc1O | 7.48 |
| CCN(CC)C(=O)CC1=C(C)/C(=C/c2[nH]c(-c3ccc[nH]3)cc2OC)N=C1C | 17.9 |
| COc1ccc(C[n+]2c3ccccc3n3c4ccc(N)cc4ccc32)c(OC)c1OC | 1.42 |
| COc1ccc(Cl)cc1Nc1nc(C(F)(F)F)ccc1C(=O)N/N=C/c1ccc([N+](=O)[O-])cc1 | 3.68 |

// TGI lookup, key: `O=[N+]([O-])c1cc([N+](=O)[O-])c(Cl)c(Cl)c1Cl`
0.723

Quick one: `Oc1ccc(CSc2nnc(-c3ccncc3)n2-c2ccccc2)c2cccnc12`
16.1

Quick one: `IP(CCCCCCCCCCSc1n(Cc2ccc3ccccc3c2)c(-c2ccccc2)c(-c2ccccc2)[n+]1Cc1ccc2ccccc2c1)(c1ccccc1)(c1ccccc1)c1ccccc1`
0.918

Quick one: `COc1cc(-c2nn(-c3ccc(NC(=O)Nc4ccc(Cl)c(Cl)c4)cc3)cc2-c2ccncc2)ccc1Cl`
5.72

Quick one: `COc1cc(N2CCN(C(C)C)CC2)ccc1Nc1nc(Nc2cccc3ncccc23)c2cc[nH]c2n1`
8.84
